Tested on: OVCAR-8
Assay: NCI tumour cell line growth inhibition, 48 h
Activity calls are given as the source filed them. Cut-off read from the data, not from the text of the source: active = GI50 up to about 1.1 µM and inactive = higher.
Select the matching outcome among true (1) for active, false (0) for inactive

CN(C)c1ccc(/C=C2\N=C(c3ccc([N+](=O)[O-])cc3)OC2=O)cc1
false (0)
Cc1cccc(C(C)(C)C)c1NC(=O)CC1C(=O)Nc2ccccc2S1(=O)=O (configuration not stated)
false (0)
CSC1=N/C(=C\c2ccc(Cl)cc2)C(=O)N1CN1CCCCC1
false (0)

Please state the recorded outcome for this molecule: COc1ccc(NC2Oc3cc4c(cc3C(c3cc(OC)c(OC)c(OC)c3)C2C)OCO4)cc1 (configuration not stated)
true (1)

Hello, I am checking results. What call was entered for CCCC(O)c1cn(C(NC(=O)c2ccccc2)P(=O)(OCC)OCC)nn1 (configuration not stated) ?
false (0)

Please state the recorded outcome for this molecule: O=c1ccn(C/C=C/c2ccccc2)c(=S)n1C/C=C/c1ccccc1
false (0)

Tell me the recorded outcome of this test for COc1ccc(/C(=N/O)c2ccccc2-c2nc3ccccc3c(=O)n2-c2ccc(S(=O)(=O)Nc3ncccn3)cc2)cc1C .
false (0)

Could you kindly confirm the outcome this assay logged for CC(=O)OCC1OC(n2c(N)c(C#N)c(-c3ccc(C)cc3)c(C#N)c2=S)C(OC(C)=O)C(OC(C)=O)C1OC(C)=O (configuration not stated) ?
false (0)

Called result for O=C(CCN1CCCC1)c1ccc(Oc2ccc(F)cc2)cc1
false (0)

Record lookup: outcome of this test for CC(C)N(C(=O)C12C3C4C5(C#N)C3C1(C#N)C5C42I)C(C)C (configuration not stated) ?
false (0)

In this assay, the call recorded for COc1ccc2c(c1)CN1CCc3c(cc(OC)c(OC)c3OC)C1C2 (configuration not stated) was what?
false (0)

# lookup: test call for Nc1nc2c(ncn2CCOC(c2ccccc2)P(=O)(O)O)c(=O)[nH]1 (configuration not stated)
false (0)

For CCCCCCCCCCCC[N+]12CC[N+](C)(CC1)CC2 , what call appears in the results of this test?
false (0)

For COc1cc(C2c3cc4c(cc3[C@H](NC(=O)c3cccs3)C3COC(=O)[C@H]23)OCO4)cc(OC)c1OC (some centres not stated) , what call appears in the results of this test?
true (1)

Query: recorded result category for C=C(CCOC)CCC1CCCCC(CN(C)C)C1=O (configuration not stated) in this test
false (0)

Hi, do you know how COc1ccc(C2OC(N)=C(C#N)C3=C2CCCC3C)cc1OC (configuration not stated) came out in this test?
false (0)

Assay result, entry COC(=O)c1nc(-c2nc(CCNC(=O)OC(C)(C)C)sc2Cl)sc1Cl — outcome?
false (0)

// return assay outcome for O=c1n(-c2ccccc2)c(=O)n2n1C1CCC2CC1
false (0)

Give the logged outcome of this assay for the following molecule: O=C1C[C@@H](c2ccccc2)NCCCCN(O)CCCN1
false (0)

State the result this test recorded for CCC(c1nc2ccccc2c(=O)n1NC(=O)C(C)(C)C)C1(O)CCCCC1 (configuration not stated) .
false (0)

// return assay outcome for COC(=O)C(c1n[nH]c2ccccc12)C(C(=O)OC)c1n[nH]c2ccccc12 (configuration not stated)
false (0)

* * *

System: A549
Experiment: NCI tumour cell line growth inhibition, 48 h
Active and inactive are the calls of the source. Cut-off read from the data, not from the text of the source: active = GI50 up to about 1.1 µM and inactive = higher.
metric: GI50

Example results:
CCOc1ccccc1NC(=O)CC1C(=O)Nc2ccccc2[S+]1[O-] (centres undefined)
> 100 µM (inactive)
Nc1nc2c(ncn2CCOC(c2ccccc2)P(=O)(O)O)c(=O)[nH]1 (centres undefined)
> 100 µM (inactive)
Cc1ccc(S(=O)(=O)NC(=O)NCC(=O)O)cc1
> 100 µM (inactive)

// for each molecule in input: emit GI50
1. Cc1ccc(S(=O)(=O)N/N=C2/CC[C@H](C(C)(C)C)C[C@@H]2C)cc1
2. COc1cc(N(Cc2ccc3oc(=O)c(-c4ccccc4)nc3c2)Cc2ccc3oc(=O)c(-c4ccccc4)nc3c2)cc(OC)c1OC
3. CCC(C)C1NC(=O)CNC(=O)C2Cc3c([nH]c4cc(O)ccc34)[S+]([O-])CC(NC(=O)CNC1=O)C(=O)NC(CC(=O)O)C(=O)N1CC(O)CC1C(=O)NC(C(C)C(O)CO)C(=O)N2 (centres undefined)
4. C=CCONC(=O)c1ccc(Cl)cc1
5. O=C1C[C@@H](c2ccccc2)NCCCCN(O)CCCN1

1: 16.4 µM (inactive); 2: > 10 µM (inactive); 3: 4.58 µM (inactive); 4: > 100 µM (inactive); 5: > 100 µM (inactive)

// GI50 value for C=C(CN(CC)CC)C1(c2ccccc2)CC2(CCCC2)C(=O)O1 (centres undefined) : > 100 µM (inactive)
